Biological target: hERG-receptor (Homo sapiens (Human))
Sequence (Q12809 whole entry): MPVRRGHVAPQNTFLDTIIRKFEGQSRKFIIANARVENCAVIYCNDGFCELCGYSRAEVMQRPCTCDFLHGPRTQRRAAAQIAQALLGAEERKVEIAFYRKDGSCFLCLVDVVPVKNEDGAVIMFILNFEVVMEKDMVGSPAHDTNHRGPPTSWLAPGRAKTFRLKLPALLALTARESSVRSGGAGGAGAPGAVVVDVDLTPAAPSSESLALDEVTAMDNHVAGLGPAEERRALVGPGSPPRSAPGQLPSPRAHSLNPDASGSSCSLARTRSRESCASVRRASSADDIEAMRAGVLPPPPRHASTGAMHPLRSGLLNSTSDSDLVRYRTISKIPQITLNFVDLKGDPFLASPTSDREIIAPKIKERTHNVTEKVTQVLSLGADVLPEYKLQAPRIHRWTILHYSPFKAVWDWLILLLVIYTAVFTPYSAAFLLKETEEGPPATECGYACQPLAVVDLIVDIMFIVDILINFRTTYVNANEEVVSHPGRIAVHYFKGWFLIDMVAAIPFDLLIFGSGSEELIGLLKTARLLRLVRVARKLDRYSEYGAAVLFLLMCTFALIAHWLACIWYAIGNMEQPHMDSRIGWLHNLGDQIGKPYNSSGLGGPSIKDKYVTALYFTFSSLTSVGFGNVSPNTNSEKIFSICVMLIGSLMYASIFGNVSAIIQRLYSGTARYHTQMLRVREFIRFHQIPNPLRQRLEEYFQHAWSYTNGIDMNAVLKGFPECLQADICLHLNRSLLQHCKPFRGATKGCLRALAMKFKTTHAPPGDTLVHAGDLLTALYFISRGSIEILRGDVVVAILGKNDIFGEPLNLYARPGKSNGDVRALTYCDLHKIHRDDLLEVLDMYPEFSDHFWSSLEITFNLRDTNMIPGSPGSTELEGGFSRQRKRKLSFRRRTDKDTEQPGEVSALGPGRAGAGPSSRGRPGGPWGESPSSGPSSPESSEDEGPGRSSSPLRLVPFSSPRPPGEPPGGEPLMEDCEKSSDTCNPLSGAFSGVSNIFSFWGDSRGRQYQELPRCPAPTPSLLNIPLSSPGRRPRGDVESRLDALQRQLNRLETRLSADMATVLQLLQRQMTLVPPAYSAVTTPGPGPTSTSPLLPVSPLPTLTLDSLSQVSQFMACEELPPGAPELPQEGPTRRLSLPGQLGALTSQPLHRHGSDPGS
Items are presented alongside their recorded pIC50.
The quantity pIC50 is defined as the negative base-10 logarithm of the molar concentration.

Study these solved cases before continuing.
Compound	Study target	Quantity	Reported measurement
Cc1nccn1Cc1cn(-c2cc(F)cc(C(F)F)c2)nn1 [Example 102]	hERG-receptor (Homo sapiens (Human))	pIC50	4.77
Clc1ccc(-n2cc(Cn3cnc(C4CCCC4)n3)nn2)cc1 [Example 15]	hERG-receptor (Homo sapiens (Human))	pIC50	4.06
CCCCc1nccn1Cc1cn(-c2ccc(F)c(C(F)F)c2)nn1 [Example 86]	hERG-receptor (Homo sapiens (Human))	pIC50	5.49
Cc1nc(C2CCC2)n(Cc2cn(-c3ccc(Cl)cc3)nn2)n1 [Example 21]	hERG-receptor (Homo sapiens (Human))	pIC50	5.45
FC(F)(F)Oc1cccc(-n2cc(Cn3ccnc3C3CC3)nn2)c1 [Example 67]	hERG-receptor (Homo sapiens (Human))	pIC50	5.59

Please look at the following compound next.
pIC50 of Cc1cc(-n2cc(Cn3ccnc3CCO)nn2)ccc1Cl [Example 74] , assay on hERG-receptor (Homo sapiens (Human)), is 4.47

###

Target: rat NR1/NR2B receptor (Rattus norvegicus (Rat), UniProt P35439+Q00960)
Sequence (Q00960 27-1482, other chains not shown): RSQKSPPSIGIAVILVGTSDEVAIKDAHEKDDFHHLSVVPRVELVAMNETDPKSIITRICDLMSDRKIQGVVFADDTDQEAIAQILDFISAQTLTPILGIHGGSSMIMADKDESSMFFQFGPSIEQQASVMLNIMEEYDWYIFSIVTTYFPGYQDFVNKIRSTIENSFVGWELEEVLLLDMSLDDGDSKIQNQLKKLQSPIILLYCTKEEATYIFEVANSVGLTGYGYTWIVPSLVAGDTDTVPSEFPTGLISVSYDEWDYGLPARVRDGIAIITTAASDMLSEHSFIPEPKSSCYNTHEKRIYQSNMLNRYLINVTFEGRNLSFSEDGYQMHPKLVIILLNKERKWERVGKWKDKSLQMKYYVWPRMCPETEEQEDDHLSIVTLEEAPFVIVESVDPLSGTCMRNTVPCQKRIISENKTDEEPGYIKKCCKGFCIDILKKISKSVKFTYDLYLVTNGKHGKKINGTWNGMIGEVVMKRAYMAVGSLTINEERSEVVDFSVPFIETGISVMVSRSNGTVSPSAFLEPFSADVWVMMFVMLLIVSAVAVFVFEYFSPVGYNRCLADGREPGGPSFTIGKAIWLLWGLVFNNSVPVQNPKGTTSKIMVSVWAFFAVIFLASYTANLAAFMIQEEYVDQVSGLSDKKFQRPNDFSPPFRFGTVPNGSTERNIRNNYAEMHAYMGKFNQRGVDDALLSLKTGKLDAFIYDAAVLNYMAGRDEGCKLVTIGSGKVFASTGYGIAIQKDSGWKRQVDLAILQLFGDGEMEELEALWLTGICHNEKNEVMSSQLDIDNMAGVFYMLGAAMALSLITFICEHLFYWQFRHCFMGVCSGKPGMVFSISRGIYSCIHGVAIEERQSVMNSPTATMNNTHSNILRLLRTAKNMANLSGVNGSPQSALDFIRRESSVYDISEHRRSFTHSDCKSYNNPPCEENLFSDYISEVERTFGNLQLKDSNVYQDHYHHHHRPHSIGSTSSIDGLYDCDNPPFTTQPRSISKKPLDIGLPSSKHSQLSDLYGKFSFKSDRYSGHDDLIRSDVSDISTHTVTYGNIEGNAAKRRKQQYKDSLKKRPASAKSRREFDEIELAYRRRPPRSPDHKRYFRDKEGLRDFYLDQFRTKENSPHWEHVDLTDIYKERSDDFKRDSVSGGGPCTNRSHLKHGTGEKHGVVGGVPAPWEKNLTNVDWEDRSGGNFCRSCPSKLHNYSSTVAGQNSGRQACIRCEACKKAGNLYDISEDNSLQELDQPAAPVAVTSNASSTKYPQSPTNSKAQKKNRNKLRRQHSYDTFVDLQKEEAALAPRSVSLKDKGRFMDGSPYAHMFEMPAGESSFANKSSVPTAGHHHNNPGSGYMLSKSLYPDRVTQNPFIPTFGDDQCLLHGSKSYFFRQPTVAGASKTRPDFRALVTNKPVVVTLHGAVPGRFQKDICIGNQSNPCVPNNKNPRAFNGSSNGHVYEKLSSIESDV
Assay: RRNR2BB: inhibition of specific binding to the rat NR1/NR2B receptor
Conditions: [3H]-Ifenprodil binding, rat brain membranes, Hill-plot 2-parameter-model
pIC50: −log10 of the molar value.
Lab note: compare pIC50 against 8. Equal or greater, write criterion met. Smaller, write criterion not met.

Compound	Study target	Label class
OCCc1nccn1Cc1cn(-c2ccc(Cl)c(Cl)c2)nn1 [Example 40]	rat NR1/NR2B receptor (Rattus norvegicus (Rat), UniProt P35439+Q00960)	criterion not met
Cc1ccc(C(=O)c2nccn2Cc2cn(-c3ccc(Cl)cc3)nn2)cc1 [Example 116]	rat NR1/NR2B receptor (Rattus norvegicus (Rat), UniProt P35439+Q00960)	criterion not met
Nc1nccn1Cc1cn(-c2ccc(Cl)c(C(F)F)c2)nn1 [Example 113A]	rat NR1/NR2B receptor (Rattus norvegicus (Rat), UniProt P35439+Q00960)	criterion met
Clc1ccc(-n2cc(Cn3cnc(C4CC4)n3)nn2)cc1 [Example 13]	rat NR1/NR2B receptor (Rattus norvegicus (Rat), UniProt P35439+Q00960)	criterion not met
Clc1ccc(-n2cc(Cn3ncnc3C3CCCC3)nn2)cc1 [Example 14]	rat NR1/NR2B receptor (Rattus norvegicus (Rat), UniProt P35439+Q00960)	criterion not met
Clc1ccc(-n2cc(Cn3nc(C4CC4)nc3C3CC3)nn2)cc1 [Example 10]	rat NR1/NR2B receptor (Rattus norvegicus (Rat), UniProt P35439+Q00960)	criterion not met
Cc1nc(C2CCC2)nn1Cc1cn(-c2ccc(Cl)cc2)nn1 [Example 22]	rat NR1/NR2B receptor (Rattus norvegicus (Rat), UniProt P35439+Q00960)	criterion not met
Nc1nccn1Cc1cn(-c2ccc(F)c(C(F)F)c2)nn1 [Example 113B]	rat NR1/NR2B receptor (Rattus norvegicus (Rat), UniProt P35439+Q00960)	criterion met
CC(C)c1nccn1Cc1cn(-c2ccc(Cl)cc2)nn1 [Example 23]	rat NR1/NR2B receptor (Rattus norvegicus (Rat), UniProt P35439+Q00960)	criterion not met
CC(C)c1ncn(Cc2cn(-c3ccc(Cl)cc3)nn2)n1 [Example 4]	rat NR1/NR2B receptor (Rattus norvegicus (Rat), UniProt P35439+Q00960)	criterion not met

Does pIC50 meet or surpass 8 for Cc1nc(C)n(Cc2cn(-c3ccc(Cl)cc3)nn2)n1 [Example 1] ?
criterion not met

Does pIC50 meet or surpass 8 for Cc1cc(-n2cc(Cn3ccnc3C)nn2)ccc1F [Example 54] ?
criterion met

Does pIC50 meet or surpass 8 for Cc1nc(CO)nn1Cc1cn(-c2ccccc2)nn1 [Example 48] ?
criterion not met

Does pIC50 meet or surpass 8 for Cc1cc(-n2cc(Cn3ccnc3C(C)C)nn2)ccc1Cl [Example 71] ?
criterion met

Does pIC50 meet or surpass 8 for Cc1nc(CO)n(Cc2cn(-c3ccccc3)nn2)n1 [Example 47] ?
criterion not met

Does pIC50 meet or surpass 8 for Cc1nccn1Cc1cn(-c2cc(F)cc(C(F)F)c2)nn1 [Example 102] ?
criterion not met
